Source: the supplement of paper PMC8728848

# glycan array binding signal (z-score) listing for each entry below
Target: Gal(b1-3)GlcNAc(b1-2)Man(a1-3)[Gal(b1-3)GlcNAc(b1-2)Man(a1-6)]Man(b1-4)GlcNAc(b1-4)[Fuc(a1-6)]GlcNAc
Test: glycan array binding signal (z-score within array); higher = stronger binding
Details: glycan notation: IUPAC condensed, linker removed
About 410 targets per protein were measured; listed, in parts, are those with the strongest signals and a random draw of the rest.
value.kind: glycan array binding signal (z-score)

binder | result
LcH (Lens culinaris), P02870 (protein) TETTSFSITKFSPDQQNLIFQGDGYTGKEGLTLTKVSKETGGRALYSTPIHIWDRDTVNVANFVTNGSQVFRESPNGYNVADGFTFFIAPVDTKPQTGGGYLGVFYNGKEYDKTSQTVAVEFDTFYNAAWDPSNKERHIGIDVNSIKSVNTKSWNLQNGVTSYTLNEVVPLKDVVPEWVRIGFSATTGAEFAAQEVHSWSFNSQLGHTSKS | 14.3
Si Bti9 1b-V5-his (Solanum lycopersicum) (protein) MQCNRGCDLALASFYVWRGSNLTLISEMFSTSIADIVSYNNRDNIPNQDSVIAGTRINIPFRCDCLNDGEVLGHAFPYRVKSGDTYDLVARNYSDLTTAQWMMKFNSYPENNIPNTVNLSVVVNCSCGNSDVSKDFGLFVTYPVRAEDNLTSVASAANVSEDIIRRYNPAAVSILDIGQGIIYIPGRDRNGNFPPLPTSTDGLSGGAKKGGRADPAFLYKVVINSKLEGKPIPNPLLGLDSTRTGHHHHHH | -0.076
MPA (Maclura pomifera), P18674 (protein) GVTFDDGAYTGIREINFEYNSETAIGGLRVTYDLNGMPFVAEDHKSFITGFKPVKISLEFPSEYIVEVSGYVGKVEGYTVIRSLTFKTNKQTYGPYGVTNGTPFSLPIENGLIVGFKGSIGYWLDYFSIYLSL | -0.074
